- target entity: Polyunsaturated fatty acid lipoxygenase ALOX12 (Homo sapiens) (UniProt P18054)
- procedure text: Inhibition of 12-LO-mediated 12-H(P)ETE production in human polymorphonuclear leukocytes assessed as remaining activity preincubated at 10 uM for 15 mins by HPLC analysis
- Assay type: cell-based
measurement name: Activity (%)

A selection of reference data follows.
>  <chemical string>
CCOC(=O)c1c(CSc2c(C)cc(C)cc2C)n(C)c2ccc(O)cc12

>  <unit info>
%

>  <numeric readout>
86.5

$$$$
>  <chemical string>
CCOC(=O)c1c(CSc2ccc(C(F)(F)F)cc2)n(C)c2ccc(O)cc12

>  <unit info>
%

>  <numeric readout>
102

$$$$
>  <chemical string>
CCOC(=O)c1c(CSc2ccccc2OC)n(C)c2ccc(O)cc12

>  <unit info>
%

>  <numeric readout>
108

$$$$
>  <chemical string>
CCOC(=O)c1c(CSc2ccc(OC(F)(F)F)cc2)n(C)c2ccc(O)cc12

>  <unit info>
%

>  <numeric readout>
94.1

$$$$

A. CCOC(=O)c1c(CSc2ccc(F)cc2)n(C)c2ccc(O)cc12
B. N#C/C(=C\c1ccc(O)c(O)c1)C(=O)OC/C=C/c1ccccc1
For this pair, A and B , which shows a numerically higher Activity? In your reply, give the label of the chosen option.
A
(A: 100%, B: 5.6%)

* * *

- target entity: Polyunsaturated fatty acid 5-lipoxygenase (Homo sapiens)
- Sequence (P09917 whole entry): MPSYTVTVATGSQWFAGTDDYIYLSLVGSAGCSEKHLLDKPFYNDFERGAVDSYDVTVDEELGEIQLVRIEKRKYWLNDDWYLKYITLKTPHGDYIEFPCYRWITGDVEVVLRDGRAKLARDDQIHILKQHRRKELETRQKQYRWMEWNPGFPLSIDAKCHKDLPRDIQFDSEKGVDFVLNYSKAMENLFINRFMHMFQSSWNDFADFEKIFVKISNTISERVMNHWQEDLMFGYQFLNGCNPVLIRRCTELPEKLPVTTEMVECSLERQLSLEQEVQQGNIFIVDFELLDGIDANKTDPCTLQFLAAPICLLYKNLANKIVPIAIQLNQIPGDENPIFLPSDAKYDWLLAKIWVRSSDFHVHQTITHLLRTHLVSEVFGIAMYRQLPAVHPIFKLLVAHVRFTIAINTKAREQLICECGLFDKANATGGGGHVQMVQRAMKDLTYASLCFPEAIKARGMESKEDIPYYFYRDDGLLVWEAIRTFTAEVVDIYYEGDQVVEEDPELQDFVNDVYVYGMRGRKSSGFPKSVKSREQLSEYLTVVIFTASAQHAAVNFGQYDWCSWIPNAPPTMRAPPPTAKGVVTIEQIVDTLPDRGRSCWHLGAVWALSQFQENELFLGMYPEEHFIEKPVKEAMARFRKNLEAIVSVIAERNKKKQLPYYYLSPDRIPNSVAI
- procedure text: Inhibition of human recombinant 5-LO expressed in Escherichia coli BL21 using arachidonic acid as substrate preincubated for 5 to 10 mins by HPLC analysis
pIC50: −log10 of the molar value.
measurement name: pIC50

>  <chemical string>
CCOC(=O)c1c(CSc2c(C)cccc2C)n(C)c2ccc(O)cc12

>  <measurement name>
pIC50

>  <numeric readout>
6.10

$$$$

I. CCOC(=O)c1c(CSc2ccc(OC(F)(F)F)cc2)n(C)c2ccc(O)cc12
II. CCOC(=O)c1c(CSc2ccc(C(F)(F)F)cc2)n(C)c2ccc(O)cc12
For this pair, I and II , which shows a numerically higher pIC50? In your reply, give the label of the chosen option.
I

* * *

- target entity: Polyunsaturated fatty acid lipoxygenase ALOX15 (Homo sapiens) (UniProt P16050)
- Sequence (whole entry): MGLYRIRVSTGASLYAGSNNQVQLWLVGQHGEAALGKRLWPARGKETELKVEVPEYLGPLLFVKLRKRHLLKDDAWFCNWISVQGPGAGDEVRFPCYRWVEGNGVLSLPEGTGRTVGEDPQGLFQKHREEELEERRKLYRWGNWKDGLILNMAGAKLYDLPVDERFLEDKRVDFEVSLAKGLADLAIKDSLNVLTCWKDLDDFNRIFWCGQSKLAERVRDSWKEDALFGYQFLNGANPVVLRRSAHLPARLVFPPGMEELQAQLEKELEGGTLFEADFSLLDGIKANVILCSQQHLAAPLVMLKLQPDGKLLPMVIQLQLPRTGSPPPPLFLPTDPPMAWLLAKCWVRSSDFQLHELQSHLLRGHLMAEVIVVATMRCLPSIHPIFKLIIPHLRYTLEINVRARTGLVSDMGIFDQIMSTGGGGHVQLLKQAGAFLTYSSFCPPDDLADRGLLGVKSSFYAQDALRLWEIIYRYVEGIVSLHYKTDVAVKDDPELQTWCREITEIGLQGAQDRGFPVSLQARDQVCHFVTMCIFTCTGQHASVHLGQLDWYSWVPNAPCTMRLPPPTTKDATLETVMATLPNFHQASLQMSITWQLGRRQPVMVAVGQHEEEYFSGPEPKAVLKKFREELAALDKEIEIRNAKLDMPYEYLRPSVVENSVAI
- procedure text: Inhibition of 15-LO-mediated 15-H(P)ETE production in human polymorphonuclear leukocytes assessed as remaining activity preincubated at 10 uM for 15 mins by HPLC analysis
- Type: cell-based
measurement name: Activity (%)

>  <chemical string>
CCOC(=O)c1c(CSc2ccc(OC(F)(F)F)cc2)n(C)c2ccc(O)cc12

>  <target entity>
Polyunsaturated fatty acid lipoxygenase ALOX15 (Homo sapiens) (UniProt P16050)

>  <measurement name>
Activity

>  <unit info>
%

>  <numeric readout>
107

$$$$
>  <chemical string>
CCOC(=O)c1c(CSc2c(C)cccc2C)n(C)c2ccc(O)cc12

>  <target entity>
Polyunsaturated fatty acid lipoxygenase ALOX15 (Homo sapiens) (UniProt P16050)

>  <measurement name>
Activity

>  <unit info>
%

>  <numeric readout>
125

$$$$
>  <chemical string>
CCOC(=O)c1c(CSc2ccccc2C(F)(F)F)n(C)c2ccc(O)cc12

>  <target entity>
Polyunsaturated fatty acid lipoxygenase ALOX15 (Homo sapiens) (UniProt P16050)

>  <measurement name>
Activity

>  <unit info>
%

>  <numeric readout>
126

$$$$
>  <chemical string>
CCOC(=O)c1c(CSc2ccccc2OC)n(C)c2ccc(O)cc12

>  <target entity>
Polyunsaturated fatty acid lipoxygenase ALOX15 (Homo sapiens) (UniProt P16050)

>  <measurement name>
Activity

>  <unit info>
%

>  <numeric readout>
136

$$$$

* * *

- target entity: Polyunsaturated fatty acid lipoxygenase ALOX12 (Homo sapiens) (UniProt P18054)
- Sequence (whole entry): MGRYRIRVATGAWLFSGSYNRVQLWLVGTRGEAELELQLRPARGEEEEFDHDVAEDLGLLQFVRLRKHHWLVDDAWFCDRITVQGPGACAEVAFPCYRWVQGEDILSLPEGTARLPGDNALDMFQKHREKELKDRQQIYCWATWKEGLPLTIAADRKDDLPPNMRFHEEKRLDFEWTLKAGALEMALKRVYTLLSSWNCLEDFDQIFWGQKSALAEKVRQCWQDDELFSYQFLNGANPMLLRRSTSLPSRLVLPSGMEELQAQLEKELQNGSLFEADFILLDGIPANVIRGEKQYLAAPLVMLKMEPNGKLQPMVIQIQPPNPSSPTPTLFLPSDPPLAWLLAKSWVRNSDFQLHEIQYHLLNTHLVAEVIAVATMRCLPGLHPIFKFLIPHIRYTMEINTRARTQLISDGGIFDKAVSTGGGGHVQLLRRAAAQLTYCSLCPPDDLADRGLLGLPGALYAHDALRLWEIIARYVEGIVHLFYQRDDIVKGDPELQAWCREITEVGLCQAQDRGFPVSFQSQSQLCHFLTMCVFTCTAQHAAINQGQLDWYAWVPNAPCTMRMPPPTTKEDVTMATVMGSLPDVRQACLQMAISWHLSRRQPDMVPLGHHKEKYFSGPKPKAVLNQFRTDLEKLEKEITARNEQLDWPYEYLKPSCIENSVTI
- procedure text: Inhibition of 12-LO-mediated 12-H(P)ETE production in human polymorphonuclear leukocytes assessed as remaining activity preincubated at 10 uM for 15 mins by HPLC analysis
- Type: cell-based
measurement name: Activity (%)

>  <chemical string>
CCOC(=O)c1c(CSc2ccc(F)cc2F)n(C)c2ccc(O)cc12

>  <measurement name>
Activity

>  <numeric readout>
91.4

$$$$
>  <chemical string>
CCOC(=O)c1c(CSc2ccccc2)n(C)c2ccc(O)cc12

>  <measurement name>
Activity

>  <numeric readout>
92.4

$$$$
>  <chemical string>
CCOC(=O)c1c(CSc2c(Cl)cccc2Cl)n(C)c2ccc(O)cc12

>  <measurement name>
Activity

>  <numeric readout>
103

$$$$
>  <chemical string>
CCOC(=O)c1c(CSc2c(C)cccc2C)n(C)c2ccc(O)cc12

>  <measurement name>
Activity

>  <numeric readout>
94.1

$$$$
>  <chemical string>
CCOC(=O)c1c(CSc2cc(C)cc(C)c2)n(C)c2ccc(O)cc12

>  <measurement name>
Activity

>  <numeric readout>
107

$$$$
>  <chemical string>
CCOC(=O)c1c(CSc2ccc(OC)cc2)n(C)c2ccc(O)cc12

>  <measurement name>
Activity

>  <numeric readout>
92.1

$$$$
>  <chemical string>
CCOC(=O)c1c(CSc2ccccc2C(F)(F)F)n(C)c2ccc(O)cc12

>  <measurement name>
Activity

>  <numeric readout>
104

$$$$
>  <chemical string>
CCOC(=O)c1c(CSc2cccc(Cl)c2)n(C)c2ccc(O)cc12

>  <measurement name>
Activity

>  <numeric readout>
92.9

$$$$

Value source: ChEMBL document CHEMBL3259515
